# Study System: T1, human MSLN-R1-his protein (human, UniProt Q13421 296-390)
# T1 construct: also called hMSLN-R1-his; human MSLN-R1 protein; not shown: His tag
# T1 chain: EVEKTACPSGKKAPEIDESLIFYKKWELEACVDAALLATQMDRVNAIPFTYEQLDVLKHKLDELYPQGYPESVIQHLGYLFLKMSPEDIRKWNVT
# Assay Explanation: ELISA, coated antigen; antibody 1 nM
Readout: OD450
// return just the number, without any unit appended

[
  {
    "Binder": "S009-F1.59.1 human-murine chimeric antibody (antibody, human IgG1, kappa, V domains shown, Chimeric IgG1/kappa) VH: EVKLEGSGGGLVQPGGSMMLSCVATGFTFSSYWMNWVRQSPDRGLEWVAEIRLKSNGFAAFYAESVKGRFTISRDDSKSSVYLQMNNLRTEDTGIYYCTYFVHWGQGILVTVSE VL: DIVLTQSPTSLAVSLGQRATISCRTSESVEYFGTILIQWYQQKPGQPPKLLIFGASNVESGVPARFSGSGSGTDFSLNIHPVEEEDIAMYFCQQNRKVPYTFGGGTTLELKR",
    "OD450": 0.03
  },
  {
    "Binder": "S009-F1.25.10 human-murine chimeric antibody (antibody, human IgG1, kappa, V domains shown, Chimeric IgG1/kappa) VH: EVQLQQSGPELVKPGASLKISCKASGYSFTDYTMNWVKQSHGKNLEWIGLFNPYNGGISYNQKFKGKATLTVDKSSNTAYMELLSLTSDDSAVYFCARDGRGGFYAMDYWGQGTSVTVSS VL: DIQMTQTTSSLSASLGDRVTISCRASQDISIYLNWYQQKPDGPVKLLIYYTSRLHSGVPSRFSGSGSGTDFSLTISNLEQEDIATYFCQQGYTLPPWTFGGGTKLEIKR",
    "OD450": 0.03
  },
  {
    "Binder": "S009-F1.2.12 human-murine chimeric antibody (antibody, human IgG1, kappa, V domains shown, Chimeric IgG1/kappa) VH: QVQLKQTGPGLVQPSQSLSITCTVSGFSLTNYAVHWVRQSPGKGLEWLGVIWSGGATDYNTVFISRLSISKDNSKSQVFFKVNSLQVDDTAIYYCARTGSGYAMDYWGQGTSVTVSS VL: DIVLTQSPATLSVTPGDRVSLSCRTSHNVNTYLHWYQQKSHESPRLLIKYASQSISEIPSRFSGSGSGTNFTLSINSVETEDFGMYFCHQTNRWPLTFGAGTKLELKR",
    "OD450": 0.04
  },
  {
    "Binder": "S009-F1.62.9 human-murine chimeric antibody (antibody, human IgG1, kappa, V domains shown, Chimeric IgG1/kappa) VH: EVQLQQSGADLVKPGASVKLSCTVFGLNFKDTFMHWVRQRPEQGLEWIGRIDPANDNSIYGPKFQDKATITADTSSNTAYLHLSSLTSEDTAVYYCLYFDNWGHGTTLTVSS VL: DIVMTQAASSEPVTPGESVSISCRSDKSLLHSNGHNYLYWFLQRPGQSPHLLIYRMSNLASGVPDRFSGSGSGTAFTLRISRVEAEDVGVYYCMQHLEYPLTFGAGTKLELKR",
    "OD450": 0.04
  },
  {
    "Binder": "S009-F1.56.1 human-murine chimeric antibody (antibody, human IgG1, kappa, V domains shown, Chimeric IgG1/kappa) VH: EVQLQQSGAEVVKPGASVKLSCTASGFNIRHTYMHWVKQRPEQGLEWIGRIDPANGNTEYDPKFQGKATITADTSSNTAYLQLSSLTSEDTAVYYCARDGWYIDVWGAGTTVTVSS VL: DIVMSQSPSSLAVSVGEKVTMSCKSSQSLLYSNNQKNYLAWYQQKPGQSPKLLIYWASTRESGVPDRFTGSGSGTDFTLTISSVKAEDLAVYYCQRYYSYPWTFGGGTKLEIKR",
    "OD450": 0.05
  },
  {
    "Binder": "S009-F1.35.24 human-murine chimeric antibody (antibody, human IgG1, kappa, V domains shown, Chimeric IgG1/kappa) VH: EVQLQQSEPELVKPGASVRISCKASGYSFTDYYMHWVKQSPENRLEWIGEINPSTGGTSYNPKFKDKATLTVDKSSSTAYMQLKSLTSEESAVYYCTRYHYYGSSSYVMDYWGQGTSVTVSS VL: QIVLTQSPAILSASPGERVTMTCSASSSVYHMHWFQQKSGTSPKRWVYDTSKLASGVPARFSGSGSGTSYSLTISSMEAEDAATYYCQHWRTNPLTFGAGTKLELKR",
    "OD450": 0.04
  }
]

Enquiry: Need OD450, item S009-F1.57.1 human-murine chimeric antibody (antibody, human IgG1, kappa, V domains shown, Chimeric IgG1/kappa) VH: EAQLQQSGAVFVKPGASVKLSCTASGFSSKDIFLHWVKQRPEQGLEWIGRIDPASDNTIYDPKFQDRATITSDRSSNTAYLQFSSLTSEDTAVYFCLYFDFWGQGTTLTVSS VL: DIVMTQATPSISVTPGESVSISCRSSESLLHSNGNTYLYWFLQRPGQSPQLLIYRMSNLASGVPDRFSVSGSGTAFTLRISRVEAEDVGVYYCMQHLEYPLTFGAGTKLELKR
Return: 0.03

Origin of values: patent US20250250357A1
